Target: T1, Human PD-L1 (human, UniProt Q9NZQ7 19-238, limits assumed)
T1 construct: also called PD-L1 analyte (Biacore); hPD-L1
T1 sequence (Q9NZQ7 19-238 limits assumed): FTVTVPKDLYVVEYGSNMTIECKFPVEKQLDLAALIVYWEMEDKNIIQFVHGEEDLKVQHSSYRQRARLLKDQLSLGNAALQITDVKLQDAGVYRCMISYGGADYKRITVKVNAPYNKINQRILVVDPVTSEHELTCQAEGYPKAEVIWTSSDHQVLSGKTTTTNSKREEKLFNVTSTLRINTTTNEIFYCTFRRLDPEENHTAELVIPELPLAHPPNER
Test: SPR (Biacore 3000), antibody captured, PD-L1 as analyte, 1:1 fit
Kd by entry:
Please respond with the number in nM and leave the unit unwritten.

Reference set, count: 3
| binder | observation_type | unit_annotation | observed_measurement |
| --- | --- | --- | --- |
| ch5G11 (antibody, Mouse VH linked to a human constant region) VH: QVQLKQSGPGLVQPSQSLSITCTVSGFSLTTYGVHWVRQSPGKGLEWLGVIWRGVTTDYNAAFMSRLTITKDNSKSQVFFKMNSLQANDTAIYYCARLGFYAMDYWGQGTSVTVSS light: SIVMTQTPKFLLVSAGDRVTITCKASQSVSNDVAWYQQKPGQSPKLLIYYAANRYTGVPDRFTGSGYGTDFTFTISIVQAEDLAVYFCQQDYTSPYTFGGGTKLEIKRTVAAPSVFIFPPSDEQLKSGTASVVCLLNNFYPREAKVQWKVDNALQSGNSQESVTEQDSKDSTYSLSSTLTLSKADYEKHKVYACEVTHQGLSSPVTKSFNRGEC | Kd | nM | 0.286 |
| m5G11 (antibody, V domains shown, Murine hybridoma IgG (printed 'mIgG'); also called 5G11-mIgG; 5G11 murine) VH: QVQLKQSGPGLVQPSQSLSITCTVSGFSLTTYGVHWVRQSPGKGLEWLGVIWRGVTTDYNAAFMSRLTITKDNSKSQVFFKMNSLQANDTAIYYCARLGFYAMDYWGQGTSVTVSS VL: SIVMTQTPKFLLVSAGDRVTITCKASQSVSNDVAWYQQKPGQSPKLLIYYAANRYTGVPDRFTGSGYGTDFTFTISIVQAEDLAVYFCQQDYTSPYTFGGGTKLEIK | Kd | nM | 0.19 |
| hu13C5 (antibody) VH: EVQLVESGGGLVKPGGSLRLSCAASGFIFRSYGMSWVRQAPGKGLEWVASISSGGSTYYPDSVKGRFTISRDNAKNSLYLQMNSLRAEDTAVYDCARGYDSGFAYWGQGTLVTVSS light: DIVLTQSPASLAVSPGQRATITCRASQSVSTSSSSFMHWYQQKPGQPPKLLIKYASNLESGVPARFSGSGSGTDFTLTINPVEANDTANYYCQHSWEIPYTFGQGTKLEIKRTVAAPSVFIFPPSDEQLKSGTASVVCLLNNFYPREAKVQWKVDNALQSGNSQESVTEQDSKDSTYSLSSTLTLSKADYEKHKVYACEVTHQGLSSPVTKSFNRGEC | Kd | nM | 1.74 |

Now turn to the next binder.
Task: Which measured Kd value corresponds to hu5G11 (antibody) VH: QITLKESGPTLVKPTQTLTLTCTVSGFSLSTYGVHWIRQPPGKALEWLGVIWRGVTTDYNAAFMSRLTITKDNSKNQVVLTMNNMDPVDTATYYCARLGFYAMDYWGQGTLVTVSS light: DIQMTQSPSSLSASVGDRVTITCKASQSVSNDVAWYQQKPGKAPKLLIYYAANRYTGVPDRFSGSGYGTDFTFTISSLQPEDIATYFCQQDYTSPYTFGQGTKLEIKRTVAAPSVFIFPPSDEQLKSGTASVVCLLNNFYPREAKVQWKVDNALQSGNSQESVTEQDSKDSTYSLSSTLTLSKADYEKHKVYACEVTHQGLSSPVTKSFNRGEC ?
Output: 0.225
